Each recorded value in this set is attributed to a melting point compilation (Tetko et al.; mined from patent text by program, amines drawn as free bases though some values may be those of a salt).

Measured melting point accompanies every entry in the list below.

Known melting point results, listed for orientation:
>>> print(df.to_string())
                                   molecule  experimental_value
0  CC[C@H](C)[C@@H]1NC(=S)c2ccccc2/C1=C/C(=O)OC       193 to 196 °C
1  O=C(CCN1CCOCC1)NCc1ccc2c(c1)Cc1c(-c3ccsc3)n[nH]c1-2       205 to 207 °C
2  CCOC(=O)c1cn(Cc2ccccc2)nc1OCc1ccc(OCc2nc(-c3ccco3)oc2C)cc1OC       137 to 138 °C
3  COC(=O)c1ccc(-c2nnc3n2-c2cccnc2Nc2ccccc2-3)cc1            > 300 °C
4        Cc1cc(C(=O)O)ccc1-c1ccccc1C(F)(F)F       171 to 174 °C
5  CC(C)c1nc(CCOCc2ccccc2)n(Cc2cccc([N+](=O)[O-])c2)c1Sc1cc(Cl)cc(Cl)c1       119 to 122 °C
6  NC(=NCC(F)(F)F)Nc1ccnc(CCCCNC(=S)NCC(F)(F)F)n1       142 to 145 °C
7  CCCCNC(=O)C1Cc2c([nH]c3ccccc23)C(c2ccc3c(c2)OCO3)N1C(=O)C=Cc1ccccc1 (centres undefined)       114 to 117 °C

Field: next molecule
# return recorded melting point for input O=C1Nc2ccc(Cl)cc2C1c1ncnc2c1cnn2C1CCCC1 (centres undefined)
304 to 306 °C

---

Measured melting point accompanies every entry in the list below.

Known melting point results, listed for orientation:
In [3]: df
Out[3]:
                                   molecule     observable  experimental_value
0  COc1ccc(-c2nc(C(=O)N(C)C)c3c4ccc(Cl)cc4n(C)c3n2)cn1  melting point       267 to 268 °C
1  Cc1nc2sccn2c(=O)c1CCN1CCC2Nc3ccccc3C2C1 (stereo not given)  melting point              152 °C
2  Cn1cc(-c2ccccc2)c(=O)c(-c2cccc(OC(F)(F)C(F)F)c2)c1  melting point       119 to 121 °C
3  OC(CCCN1CC=C(c2ccccc2)CC1)c1ccc(F)cc1 (stereo not given)  melting point       116 to 117 °C
4              C#CCCCCCCCCOc1cccc(C(N)=O)c1  melting point       111 to 112 °C

# return recorded melting point for input `CCOP(=O)(CNCc1ccnc(-c2cc(C(C)(C)C)c(O)c(C(C)(C)C)c2)c1)OCC`
66 to 69 °C

# return recorded melting point for input `Cc1c(S(=O)(=O)c2ccc(=O)[nH]n2)oc2cccc(Cl)c12`
232 to 233 °C

# return recorded melting point for input `CCOC(=O)c1sc(SC)c2c1CCc1cn(C)nc1-2`
193 to 194 °C

# return recorded melting point for input `COc1cc(OC)nc(NC(=O)NS(=O)(=O)c2ccccc2CS(=O)(=O)N(C)C)n1`
172 to 176 °C

# return recorded melting point for input `O=C(ON1C(=O)CCC1=O)c1ccccc1`
178 °C

---

Measured melting point accompanies every entry in the list below.

                                   compound  experimental_value
0  COC=C(C(=O)OC)c1c(OC)ncnc1Oc1cccc(COc2ccccc2C#N)c1       132 to 135 °C
1  CCN1C(=O)C(C)(C)C(=O)N(C)c2cc(CN(CCn3ccc4oc(C)cc4c3=O)Cc3ccccc3CO)ccc21       159 to 161 °C

# return recorded melting point for input `Cc1ccc(N(C)S(=O)(=O)c2cccs2)c2[nH]c(-c3ncc(CCl)s3)cc12`
194 to 195 °C

# return recorded melting point for input `NC(=O)c1cccc(OCCCl)c1`
125 to 126 °C

# return recorded melting point for input Nc1ncc2ncn(OCC(O)CO)c2n1 (stereo not given)
183 to 185 °C

---

Observable: melting point

Known melting point results, listed for orientation:
                           molecule  experimental_value
0  CCOc1cc(N)c([N+](=O)[O-])cc1NCCO       157 to 158 °C
1     CSc1ccc2c(c1)Cc1ccc(C=O)cc1O2       122 to 123 °C

# return recorded melting point for input `Cc1ccc(Cn2c(=O)c(-c3ccccc3)c3n(c2=O)CC=CS3)cc1`
124 to 125 °C

# return recorded melting point for input `O=C(NCC1CCCC1)NCC1CCCC1`
162 to 164 °C

# return recorded melting point for input `O=C(O)Cc1n[nH]c2c(=O)[nH]c3cc(Cl)ccc3c(=O)c12`
297 to 300 °C

# return recorded melting point for input `O=C(Nc1cnc2c(c1)CCCC2)C(Cl)(Cl)Cl`
157 to 159 °C

# return recorded melting point for input `CN(N)C(=S)Nc1ccc([N+](=O)[O-])cc1Cl`
164 to 167 °C

# return recorded melting point for input `Brc1ccc2ccsc2c1`
53 to 55 °C

# return recorded melting point for input `CCn1nc(C)c2c(Cl)c(CCl)cnc21`
96 to 97 °C

# return recorded melting point for input `COC(=O)c1cccn2c(C(=O)c3ccc(N4C[C@H](CNC(C)=O)OC4=O)cc3)cnc12`
202 to 204 °C

# return recorded melting point for input COc1cc(C(O)Cc2ccccc2)ccc1OCc1ccccc1 (configuration not stated)
97 to 98 °C

# return recorded melting point for input `Cc1cccn2c(=O)c(C(=O)NC3CCCC3)cnc12`
170 to 171 °C

---

Measured melting point accompanies every entry in the list below.

                                   compound     observable  experimental_value
0  O=C1NC(Cc2ccccc2)C(=O)N/C1=C\c1ccc(O)cn1 (stereo not given)  melting point       251 to 252 °C

# return recorded melting point for input `COc1ccc(-c2cc(=O)c3ccc(OCCCBr)cc3o2)cc1OC`
148 to 149 °C

# return recorded melting point for input `CCn1c(COC(=O)NC(C)=O)nc(C(C)C)c1Sc1cc(Cl)cc(Cl)c1`
163 to 164 °C

# return recorded melting point for input O=C(O)C1CNc2ccccc2CN1 (stereo not given)
183 to 185 °C

# return recorded melting point for input `CCN(C(=O)C(C)(C)C)c1cccc(-c2ccc3nnc(C)n3n2)c1`
168 to 170 °C

# return recorded melting point for input `Cn1cnc2cc(NC(=O)c3cc4cc(F)ccc4n3Cc3cccc(F)c3)cnc21`
235 to 236 °C

# return recorded melting point for input `COc1ccc(Br)c(OC)c1C#N`
113 to 115 °C

# return recorded melting point for input `CC(C)(C)OC(=O)N[C@H](C(=O)N1CCC[C@H]1C(=O)OCc1ccccc1)C(C)(C)C`
174 °C

# return recorded melting point for input `O=C(CCl)c1ccc(OCc2nnn[nH]2)cc1`
194 to 196 °C

# return recorded melting point for input `CCCC(=O)Nc1n[nH]c2cc(Cl)c(-c3ccc(CC)cc3)cc12`
240 °C

---

Measured melting point accompanies every entry in the list below.

# return recorded melting point for input CCOC(=O)c1cn2c3c(cc(F)cc3c1=O)C1CCCCC12 (stereo not given)
97 to 98 °C

# return recorded melting point for input CC(C)c1cccc(C(C)C)c1NC(=O)C(C)C1c2ccccc2Oc2ccccc21 (stereo not given)
210 to 211 °C

# return recorded melting point for input O=C1Nc2ccc(Br)cc2C1c1ncnc2c1cnn2C1CCCCC1 (stereo not given)
305 to 308 °C

# return recorded melting point for input `Cc1ccc(-c2cc(C)cn2-c2ccc(S(N)(=O)=O)cc2)cc1`
175 to 176 °C

# return recorded melting point for input `COCc1ncc(C(=O)OC)n1C`
74 to 77 °C

# return recorded melting point for input `CCCCOc1cc(OCCCc2cn(-c3ccc(C(F)(F)F)cn3)nc2OCC)ccc1CCC(=O)O`
123 to 124 °C

# return recorded melting point for input `COC(CNC(=O)CCN1C(=O)N(C)C(=O)C1(C)C)OC`
86.4 °C

---

Measured melting point accompanies every entry in the list below.

>>> df
                                   molecule     observable  experimental_value
0  COc1cccc(-c2cc(C3CNC(=O)C3)ccc2OC)c1 (stereo unspecified)  melting point       137 to 139 °C
1             CN(C)C(=O)ON=C1n2ccnc2SC1(C)C  melting point        99 to 102 °C
2                    CCN(CC)C(=O)c1cccnc1OC  melting point               83 °C
3  CC[C@H]1[C@@H](O)C(F)(F)C(=O)N1c1ccc(C#N)c(OC)c1  melting point       161 to 164 °C
4           COc1cc(-c2cn3ccccc3n2)c(F)cc1Cl  melting point       139 to 141 °C
5  COc1cc2c(cc1OC)C(O)(c1ccccn1)CC(C)(C)CO2 (stereo unspecified)  melting point               90 °C

# return recorded melting point for input `C[C@H](CC(=O)[C@H](Cc1ccccc1)OC(=O)c1ccccc1)C(=O)N1CCC[C@H]1C(=O)O`
130 to 134 °C

# return recorded melting point for input `Cc1scc2c1N(C(=O)NCCN1CCC(CCCN3CCCCC3)CC1)c1ccccc1NC2=O`
170 to 171 °C

# return recorded melting point for input `S=C1CN=C(c2ccccc2)c2ccsc2N1`
208 to 210 °C

# return recorded melting point for input `CC(=O)N1CCC(C(=O)c2ccc(Br)cc2F)CC1`
111 to 113 °C

# return recorded melting point for input `Cn1nc(-c2ccc(Cl)cc2)n(C)c1=S`
113 to 115 °C

# return recorded melting point for input `CCOC(=O)C(C(=O)Nc1ccc(C)cc1)(c1ccccc1)c1ccccc1`
88 to 90 °C
